// provenance: patent EP4671273A1

biological target: T1, cynomolgus PD-1 (#PD1-C52H5, AcroBiosystems) (cynomolgus monkey, UniProt B0LAJ3 25-170); assay: SPR, PD-1 on captured IgG1
T1 construct: bought; also called cynomolgus monkey PD-1; not shown: the vendor's tag on the recombinant protein (AcroBiosystems #PD1-C52H5)
T1 sequence (B0LAJ3 entry or part of it limits assumed, form in doubt): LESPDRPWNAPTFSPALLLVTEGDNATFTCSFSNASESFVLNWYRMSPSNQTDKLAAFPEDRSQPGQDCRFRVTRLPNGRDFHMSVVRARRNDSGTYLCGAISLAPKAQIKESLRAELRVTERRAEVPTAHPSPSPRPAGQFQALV
Field 'label' (enum: Fulfilled / Not fulfilled). Set to Fulfilled when Kd is strictly under 1 nM; else Not fulfilled.

KOW427 (antibody, human IgG1, V domains shown, human IgG1) VH: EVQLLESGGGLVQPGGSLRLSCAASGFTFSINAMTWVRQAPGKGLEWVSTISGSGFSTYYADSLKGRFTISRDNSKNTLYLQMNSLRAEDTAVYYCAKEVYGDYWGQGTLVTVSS VL: RSVLTQPPSASGTPGQRVSISCSGASSNIGSQSVFWYQQLPGTAPKLGIYSNNQRPSGVPDRFSGSKSGTSASLAISGLRSEDEADYYCAAWDDSLSIWVFGGGTKLTVL    Not fulfilled

stdin: Lab note: Kd threshold 1 nM. Does this binder come in strictly under it? SSR010 (antibody, human IgG1, V domains shown, human IgG1) VH: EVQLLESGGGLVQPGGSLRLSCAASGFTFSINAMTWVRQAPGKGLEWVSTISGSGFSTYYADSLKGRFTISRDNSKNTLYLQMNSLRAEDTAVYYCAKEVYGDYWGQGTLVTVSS VL: RSVLTQPPSASGTPGQRVSISCSGASSNVGSQSVFWYQQLPGTAPKLLIYSNNQRPSGVPDRFSGSKSGTSASLAISGLRSEDEADYYCAAWDDSLSIWVFGGGTKLTVL
stdout: Not fulfilled

stdin: Query 21A08Ap1 (antibody, human IgG1, V domains shown, human IgG1; also called anti-PD-1 antibody clone 21A08Ap1) VH: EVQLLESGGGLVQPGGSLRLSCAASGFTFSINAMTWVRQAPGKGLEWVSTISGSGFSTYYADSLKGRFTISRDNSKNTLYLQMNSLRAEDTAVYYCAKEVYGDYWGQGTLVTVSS VL: RSVLTQPPSASGTPGQRVSISCSGASSNIGSQSVFWYQQLPGTAPKLLIYSNNQRPSGVPDRFSGSKSGTSASLAISGLRSEDEADYYCAAWDDSLSIWVFGGGTKLTVL next
stdout: Not fulfilled

stdin: Query NWL270 (antibody, human IgG1, V domains shown, human IgG1) VH: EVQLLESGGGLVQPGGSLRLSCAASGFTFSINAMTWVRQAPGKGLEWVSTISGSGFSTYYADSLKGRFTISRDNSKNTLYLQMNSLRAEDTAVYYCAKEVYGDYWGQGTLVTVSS VL: RSVLTQPPSASGTPGQRVSISCSGASSNIGSQSVFWYQQLPGTAPKLLIYSNNQRPSGVPDRFSGSKSGTSASLAISGLRSEDEADYYCAAWDDSLSNWVFGGGTKLTVL next
stdout: Fulfilled

stdin: Query KYC847 (antibody, human IgG1, V domains shown, human IgG1) VH: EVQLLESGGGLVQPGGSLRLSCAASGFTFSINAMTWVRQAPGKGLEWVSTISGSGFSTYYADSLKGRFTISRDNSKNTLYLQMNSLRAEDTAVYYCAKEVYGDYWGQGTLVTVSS VL: RSVLTQPPSASGTPGQRVSISCSGASSNIGSQSVFWYQQLPGTAPKLLIYSNNQRPSGVPDRFSGSKSGTSASLAISGLRSEDEADYYCAAWDDSLTIWVFGGGTKLTVL next
stdout: Fulfilled
